Where do these numbers come from? They come from paper PMC10786891.

Target: T1, EsCas13d, nuclease-dead (Eubacterium siraeum, UniProt B0MS50, R295A;H300A;R849A;H854A)
T1 sequence: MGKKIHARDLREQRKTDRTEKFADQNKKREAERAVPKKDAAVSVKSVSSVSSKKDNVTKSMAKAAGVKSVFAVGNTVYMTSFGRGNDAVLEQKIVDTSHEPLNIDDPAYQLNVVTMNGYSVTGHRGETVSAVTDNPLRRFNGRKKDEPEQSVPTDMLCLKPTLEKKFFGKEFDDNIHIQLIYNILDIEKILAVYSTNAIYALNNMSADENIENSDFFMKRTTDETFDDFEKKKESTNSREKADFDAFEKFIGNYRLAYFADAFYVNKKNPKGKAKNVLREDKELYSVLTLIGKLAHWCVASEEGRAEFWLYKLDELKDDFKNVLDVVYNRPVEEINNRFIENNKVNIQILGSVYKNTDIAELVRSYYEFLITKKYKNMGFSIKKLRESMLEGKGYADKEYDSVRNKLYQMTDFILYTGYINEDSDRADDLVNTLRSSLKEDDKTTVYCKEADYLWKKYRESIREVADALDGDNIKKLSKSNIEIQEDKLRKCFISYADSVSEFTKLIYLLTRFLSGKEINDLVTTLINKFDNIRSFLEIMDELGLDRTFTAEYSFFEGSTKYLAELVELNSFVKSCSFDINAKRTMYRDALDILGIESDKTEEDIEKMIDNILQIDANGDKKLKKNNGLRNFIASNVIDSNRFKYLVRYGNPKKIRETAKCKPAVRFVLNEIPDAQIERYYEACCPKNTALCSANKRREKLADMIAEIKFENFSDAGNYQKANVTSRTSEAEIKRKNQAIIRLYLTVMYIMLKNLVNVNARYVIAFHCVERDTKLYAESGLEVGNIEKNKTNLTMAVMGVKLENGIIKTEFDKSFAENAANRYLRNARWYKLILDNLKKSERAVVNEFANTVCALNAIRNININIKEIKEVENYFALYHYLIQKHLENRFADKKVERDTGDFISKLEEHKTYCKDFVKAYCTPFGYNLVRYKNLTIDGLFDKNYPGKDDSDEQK
Assay: crRNA (strand 1, pre-loaded); Mg2+; 40 mM Tris-HCl pH 7.5, 150 mM NaCl, 6 mM MgCl2, 1 mM DTT, 0.1% Tween-20, 0.2 mg/ml BSA; 25 C; 10 min per concentration, then washed
Conditions: tags: His6-TwinStrep-SUMO cleaved; N-terminal SNAP kept (SNAP-Surface 488); label: 3' end held by stalled T7 RNA polymerase
QUANTITY NAME: Kd (nM)
I only need the number, in nM, no unit after it.

Sample records with Kd:
{"columns": ["BINDER", "UNIT NAME", "RECORDED RESULT"],
 "data": [
  ["target 1 insG 3' of 7,insA 3' of 6 (mixed) RNA 1: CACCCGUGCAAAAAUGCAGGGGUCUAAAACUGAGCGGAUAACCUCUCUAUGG RNA 2: GGGAAUGGAUCCACAUCUACGAAUUCGUACCAUAGAGAGGUUAUCGCAGCUCACCGAGAUCGGAAGAGCACACGU", "nM", 9],
  ["target 1 MT 5'PFS CCG 3'PFS CAC (mixed) RNA 1: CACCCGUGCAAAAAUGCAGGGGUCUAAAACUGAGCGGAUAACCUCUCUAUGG RNA 2: GGGAAUGGAUCCACAUCUACGAAUUCCCGCCAUAGAGAGGUUAUCCGCUCACACAGAUCGGAAGAGCACACGU", "nM", 6.45],
  ["target 1 U11G,A18U (mixed) RNA 1: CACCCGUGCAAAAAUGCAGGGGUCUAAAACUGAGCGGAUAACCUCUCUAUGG RNA 2: GGGAAUGGAUCCACAUCUACGAAUUCGUACCAUUGAGAGGGUAUCCGCUCACCGAGAUCGGAAGAGCACACGU", "nM", 100]
]}

For the next question, use this binder.
// target 2 MT 5'PFS AUU 3'PFS CGA (mixed) RNA 1: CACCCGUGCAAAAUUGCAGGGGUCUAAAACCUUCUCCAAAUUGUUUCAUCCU RNA 2: GGGAAUGGAUCCACAUCUACGAAUUCAUUAGGAUGAAACAAUUUGGAGAAGCGAAGAUCGGAAGAGCACACGU : Kd value = 5.5
